test system: MS2 coat protein; test: apparent KD of MS2 coat protein; higher = weaker reporter binding; conditions: Eterna round: R107; input ligand: none
Each entry gets Not met if its apparent KD of MS2 coat protein stays under 10 nM, and Met if its apparent KD of MS2 coat protein is 10 nM or above.

Query: Does apparent KD of MS2 coat protein meet or surpass 10 nM for UACCGAUGAAGAAGGAGCGUGCGUGGUUCACAUGAGGAUCACCCAUGUGCUUUAUACUAGGCACAGGUAGGUCGCUUCAUCGGUA [SSAB NP+V+V2 #22] ?
Result: Met

Query: Is the recorded value of apparent KD of MS2 coat protein equal to or greater than 10 nM for this sequence? CUAUUCUGUACGGCCGCCACUUCAACGUGUAAGCUGGUGGUCCACUACAUGAGGAUCACCCAUGUAAGGACCGGGUACGGCGCGG [theeternabot_exclusion_MS2_Trp_B_29]
Result: Met

Query: State whether the measured apparent KD of MS2 coat protein reaches 10 nM, counting equality as reaching it, for GGUCUCUGGAGCGAUACCAGCUUGAUCGUACUAGCCAGGUACAUGAGGAUCACCCAUGUAAGCCCUUGGCAGCGCUCCAGAGACC [#1 Exclusion - Theophylline B Attempt #9 (HarryS)]
Result: Not met

Query: Decide: apparent KD of MS2 coat protein of GGAUGAAACUGAAGGAGCGAGAUCACAAGAAUGGGUCAAACAUGAGGAUCACCCAUGUAAUCUCAGGUAGGUCGCAGUGUCCCUU [Exclusion Arginine B GF 11] >= 10 nM?
Result: Met

Query: # check: apparent KD of MS2 coat protein of AACAUGAGGAUCACCCAUGUCUGAACUGAAGGAGCGCUAAAUAAGGCAGGUAGGUCGCGGAAUUUUAUAUAUAUAUAUAUAUAGG [9.D] is greater than or equal to 10 nM
Result: Met

---

tested on: MS2 coat protein; assay: apparent KD of MS2 coat protein; designed switch direction (-1 OFF switch, 1 ON switch): -1; higher = weaker reporter binding; conditions: input ligand: none
measured quantity: apparent KD of MS2 coat protein (nM)
State just the number; it will be interpreted in nM.

Query: Please report the recorded apparent KD of MS2 coat protein for CGAUGCUCGAGUCGACAUGAGGAUCACCCAUGUAGAGUUAGCGAGGAUAUCGGAGACACAUAGUAUGAGAAGGCGCGAACCUGA [Ex NG3 #19] (Eterna round: R96, puzzle: Exclusion NG 3) .
Result: 16.7

Query: // apparent KD of MS2 coat protein lookup, key: AUAAGUAUAUAGGAUAUCUAGCUGGUAACAGCUAGAGAAGGAUGUACAUGAGGAUCACCCAUGUAAAUCUCAAU [Ex6/12-A2] (Eterna round: R97, puzzle: Exclusion 6)
Result: 16.1

Query: Any idea what its apparent KD of MS2 coat protein is? The sequence is CUUGUGCAACAGGAUAUGUGCACGGCAGUAGCAACAGAAGGGUUGACAUGAGGAUCACCCAUGUUUACAAAGCG [Eternabot (Original) Solution 35] (Eterna round: R97, puzzle: Exclusion 6)
Result: 137

Query: Entry GUCCUACAUGAGGAUCACCCAUGUGAGGAUAUGCGGUUAGCUGCUAGGUAGUUAGUAUGCAGAAGGCGCGUGAA [EX1 #80] (Eterna round: R97, puzzle: Exclusion 1) : reported apparent KD of MS2 coat protein = ?
Result: 14

Query: Suppose we examine the sequence AAUAAUGUAGGAUAUACAUGAGGAUCACCCAUGUCCCACCCGUUACCUAUGACCAUAUGUAGAAGGACAAAUAA [Exy#4] (Eterna round: R97, puzzle: Exclusion 3) ; what apparent KD of MS2 coat protein value has been reported?
Result: 67.3
